test system: EB-3 (Burkitt's Lymphoma); assay: Bliss excess, mean over the matrix (fraction); higher = more synergy
# Bliss excess per entry
API doc: respond with a numeric literal and nothing else, no unit.

COMPOUND | VALUE_TYPE | OBSERVED_MEASUREMENT
NC1(C(=O)N[C@@H](CCO)c2ccc(Cl)cc2)CCN(c2ncnc3[nH]ccc23)CC1 [Capivasertib] + COc1nnc2ccc(N3CCC(c4ccc(OCCN5CCN(C)C(=O)[C@H]5C)cc4)CC3)nn12 [AZD5153] (first compound max 10 µM, 7x7, partner max 1 µM) | Bliss excess | -0.0529

Kindly review the next compound as well.
Input COc1cccc(OCCCN)c1-c1cc(Nc2cnc(C#N)cn2)n[nH]1 [Prexasertib] + C[C@@H]1COCCN1C2=NC(=NC(=C2)C3(CC3)[S@](=N)(=O)C)C4=C5C=CNC5=NC=C4 [AZD6738] (first compound max 1 µM, 7x7, partner max 10 µM) . Output Bliss excess: -0.0598

###

tested on: NCI-H1155 (Non-Small Cell Lung Carcinoma); assay: Bliss excess, mean over the matrix (fraction); higher = more synergy
VALUE_TYPE: Bliss excess
Give the figure by itself; no unit, no explanation.

Below, 2 molecules whose answers are already recorded.
MOLECULE | OBSERVED_MEASUREMENT
Cn1cnc2c(F)c(Nc3ccc(Br)cc3Cl)c(C(=O)NOCCO)cc21 [Selumetinib] + C[C@@H]1COCCN1C2=NC(=NC(=C2)C3(CC3)[S@](=N)(=O)C)C4=C5C=CNC5=NC=C4 [AZD6738] (first compound max 10 µM, 7x7, partner max 10 µM) | -0.0028
Cc1c2c(nn1C)CSCc1cc(n(C)n1)CSc1cc(c3ccccc3c1)OCCCc1c(C(=O)O)n(C)c3c-2c(Cl)ccc13 [AZD5991] + CCN(CCO)CCCOc1ccc2c(Nc3cc(CC(=O)Nc4cccc(F)c4)[nH]n3)ncnc2c1 [AZD2811] (first compound max 1 µM, 7x7, partner max 1 µM) | 0.0911

Shift focus to the following entry.
Reading of Bliss excess for Cc1c2c(nn1C)CSCc1cc(n(C)n1)CSc1cc(c3ccccc3c1)OCCCc1c(C(=O)O)n(C)c3c-2c(Cl)ccc13 [AZD5991] + Cc1cc2ncnn2cc1Nc1ncc2c(n1)n(C1CCOCC1)c(=O)n2C [AZD7648] (first compound max 1 µM, 7x7, partner max 10 µM) with NCI-H1155 (Non-Small Cell Lung Carcinoma): -0.017

###

The entries below are paired with their reported combination Emax.
system: OCI-AML5 (Acute Myeloid Leukemia); assay: combination Emax (second highest fraction inhibited in the dose matrix, 72 h); higher = more inhibition; extreme values may be limits of the assay
Response field accepts a number only; no unit should be typed.

Consider the reported combination Emax for these compounds:
COMPOUND | combination Emax
CC1(C)CCC(CN2CCN(c3ccc(C(=O)NS(=O)(=O)c4ccc(NCC5CCOCC5)c([N+](=O)[O-])c4)c(Oc4cnc5[nH]ccc5c4)c3)CC2)=C(c2ccc(Cl)cc2)C1 [Venetoclax] + CN(C)CCCOc1ccc(-c2ccc3ncc4c(c3c2)n(C2CCOCC2)c(=O)n4C)cn1 [AZD0156] (first compound max 1 µM, 7x7, partner max 1 µM) | 0.901
Cc1c2c(nn1C)CSCc1cc(n(C)n1)CSc1cc(c3ccccc3c1)OCCCc1c(C(=O)O)n(C)c3c-2c(Cl)ccc13 [AZD5991] + C1CN(CCC1(C(=O)N[C@@H](CCO)C2=CC=C(C=C2)Cl)N)C3=NC=NC4=C3C=CN4 [Capivasertib] (first compound max 1 µM, 7x7, partner max 3 µM) | 1
CN(CCO)CC[C@H](CSc1ccccc1)Nc1ccc(S(=O)(=O)NC(=O)c2ccc(N3CCC([C@@H](O)c4ccccc4-c4ccc(Cl)cc4)CC3)cc2)cc1S(=O)(=O)C(F)(F)F [AZD4320] + C[C@@H]1COCCN1C2=NC(=NC(=C2)C3(CC3)[S@](=N)(=O)C)C4=C5C=CNC5=NC=C4 [AZD6738] (first compound max 1 µM, 7x7, partner max 10 µM) | 1
CN(CCO)CC[C@H](CSc1ccccc1)Nc1ccc(S(=O)(=O)NC(=O)c2ccc(N3CCC([C@@H](O)c4ccccc4-c4ccc(Cl)cc4)CC3)cc2)cc1S(=O)(=O)C(F)(F)F [AZD4320] + C[C@@H](Nc1cc(F)cc(F)c1)c1cc(C(=O)N(C)C)cc2c(=O)cc(N3CCOCC3)oc12 [AZD8186] (first compound max 1 µM, 7x7, partner max 3 µM) | 1
CN(CCO)CC[C@H](CSc1ccccc1)Nc1ccc(S(=O)(=O)NC(=O)c2ccc(N3CCC([C@@H](O)c4ccccc4-c4ccc(Cl)cc4)CC3)cc2)cc1S(=O)(=O)C(F)(F)F [AZD4320] + C=CCn1c(=O)c2cnc(Nc3ccc(N4CCN(C)CC4)cc3)nc2n1-c1cccc(C(C)(C)O)n1 [AZD1775] (first compound max 1 µM, partner max 1 µM) | 1

Entry Cc1cc2ncnn2cc1Nc1ncc2c(n1)n(C1CCOCC1)c(=O)n2C [AZD7648] + C=CCn1c(=O)c2cnc(Nc3ccc(N4CCN(C)CC4)cc3)nc2n1-c1cccc(C(C)(C)O)n1 [AZD1775] (first compound max 10 µM, partner max 1 µM) — recorded combination Emax = 0.947

compound COc1nnc2ccc(N3CCC(c4ccc(OCCN5CCN(C)C(=O)[C@H]5C)cc4)CC3)nn12 [AZD5153] + CN(CC[C@H](CSC1=CC=CC=C1)NC2=C(C=C(C=C2)S(=O)(=O)NC(=O)C3=CC=C(C=C3)N4CCC(CC4)[C@H](C5=CC=CC=C5C6=CC=C(C=C6)Cl)O)S(=O)(=O)C(F)(F)F)CCO [AZD4320] (first compound max 1 µM, 7x7, partner max 1 µM) , combination Emax observed: 1

# compound COc1nnc2ccc(N3CCC(c4ccc(OCCN5CCN(C)C(=O)[C@H]5C)cc4)CC3)nn12 [AZD5153] + C[C@@H]1COCCN1C2=NC(=NC(=C2)C3(CC3)[S@](=N)(=O)C)C4=C5C=CNC5=NC=C4 [AZD6738] (first compound max 1 µM, 7x7, partner max 10 µM) ; its combination Emax = 0.95

Reported combination Emax of CC1(C)CCC(CN2CCN(c3ccc(C(=O)NS(=O)(=O)c4ccc(NCC5CCOCC5)c([N+](=O)[O-])c4)c(Oc4cnc5[nH]ccc5c4)c3)CC2)=C(c2ccc(Cl)cc2)C1 [Venetoclax] + COc1cc(Nc2ncc3c(n2)-c2ccc(Cl)cc2C(c2c(F)cccc2OC)=NC3)ccc1C(=O)O [Alisertib] (first compound max 1 µM, 7x7, partner max 10 µM) : 1

GET /value?item= CC1(C)CCC(CN2CCN(c3ccc(C(=O)NS(=O)(=O)c4ccc(NCC5CCOCC5)c([N+](=O)[O-])c4)c(Oc4cnc5[nH]ccc5c4)c3)CC2)=C(c2ccc(Cl)cc2)C1 [Venetoclax] + CCN(CCO)CCCOc1ccc2c(Nc3cc(CC(=O)Nc4cccc(F)c4)[nH]n3)ncnc2c1 [AZD2811] (first compound max 1 µM, 7x7, partner max 1 µM) &field=combination Emax returns 1

get_value(item= Cc1c2c(nn1C)CSCc1cc(n(C)n1)CSc1cc(c3ccccc3c1)OCCCc1c(C(=O)O)n(C)c3c-2c(Cl)ccc13 [AZD5991] + CCN(CCO)CCCOc1ccc2c(Nc3cc(CC(=O)Nc4cccc(F)c4)[nH]n3)ncnc2c1 [AZD2811] (first compound max 1 µM, 7x7, partner max 1 µM) , readout=combination Emax) returns 1

What the record says about Cn1cnc2c(F)c(Nc3ccc(Br)cc3Cl)c(C(=O)NOCCO)cc21 [Selumetinib] + C=CCn1c(=O)c2cnc(Nc3ccc(N4CCN(C)CC4)cc3)nc2n1-c1cccc(C(C)(C)O)n1 [AZD1775] (first compound max 10 µM, partner max 1 µM) : combination Emax is 0.944

###

Collected combination Emax values appear next to each entry.
test system: NCI-H1563 (Lung Adenocarcinoma); assay: combination Emax (second highest fraction inhibited in the dose matrix, 72 h); higher = more inhibition; extreme values may be limits of the assay
API doc: respond with a numeric literal and nothing else, no unit.

// below: answered compounds
COMPOUND | combination Emax
CN(CCO)CC[C@H](CSc1ccccc1)Nc1ccc(S(=O)(=O)NC(=O)c2ccc(N3CCC([C@@H](O)c4ccccc4-c4ccc(Cl)cc4)CC3)cc2)cc1S(=O)(=O)C(F)(F)F [AZD4320] + C[C@@H]1COCCN1C2=NC(=NC(=C2)C3(CC3)[S@](=N)(=O)C)C4=C5C=CNC5=NC=C4 [AZD6738] (first compound max 1 µM, 7x7, partner max 10 µM) | 0.433
Cc1cc2ncnn2cc1Nc1ncc2c(n1)n(C1CCOCC1)c(=O)n2C [AZD7648] + CN(C)CCCOc1ccc(-c2ccc3ncc4c(c3c2)n(C2CCOCC2)c(=O)n4C)cn1 [AZD0156] (first compound max 10 µM, 7x7, partner max 1 µM) | 0.49
Cc1c2c(nn1C)CSCc1cc(n(C)n1)CSc1cc(c3ccccc3c1)OCCCc1c(C(=O)O)n(C)c3c-2c(Cl)ccc13 [AZD5991] + C[C@@H]1COCCN1C2=NC(=NC(=C2)C3(CC3)[S@](=N)(=O)C)C4=C5C=CNC5=NC=C4 [AZD6738] (first compound max 1 µM, 7x7, partner max 10 µM) | 0.774
COc1nnc2ccc(N3CCC(c4ccc(OCCN5CCN(C)C(=O)[C@H]5C)cc4)CC3)nn12 [AZD5153] + CN(CC[C@H](CSC1=CC=CC=C1)NC2=C(C=C(C=C2)S(=O)(=O)NC(=O)C3=CC=C(C=C3)N4CCC(CC4)[C@H](C5=CC=CC=C5C6=CC=C(C=C6)Cl)O)S(=O)(=O)C(F)(F)F)CCO [AZD4320] (first compound max 1 µM, 7x7, partner max 1 µM) | 0.536
CN(C)CCCOc1ccc(-c2ccc3ncc4c(c3c2)n(C2CCOCC2)c(=O)n4C)cn1 [AZD0156] + C=CCn1c(=O)c2cnc(Nc3ccc(N4CCN(C)CC4)cc3)nc2n1-c1cccc(C(C)(C)O)n1 [AZD1775] (first compound max 1 µM, partner max 1 µM) | 0.367
CC(=O)c1c(C)c2cnc(Nc3ccc(N4CCNCC4)cn3)nc2n(C2CCCC2)c1=O [Palbociclib] + CC1(C)CCC(CN2CCN(c3ccc(C(=O)NS(=O)(=O)c4ccc(NCC5CCOCC5)c([N+](=O)[O-])c4)c(Oc4cnc5[nH]ccc5c4)c3)CC2)=C(c2ccc(Cl)cc2)C1 [Venetoclax] (first compound max 10 µM, 7x7, partner max 1 µM) | 0.313
COc1nnc2ccc(N3CCC(c4ccc(OCCN5CCN(C)C(=O)[C@H]5C)cc4)CC3)nn12 [AZD5153] + CC1(C)CCC(CN2CCN(c3ccc(C(=O)NS(=O)(=O)c4ccc(NCC5CCOCC5)c([N+](=O)[O-])c4)c(Oc4cnc5[nH]ccc5c4)c3)CC2)=C(c2ccc(Cl)cc2)C1 [Venetoclax] (first compound max 1 µM, 7x7, partner max 1 µM) | 0.491
Cn1cnc2c(F)c(Nc3ccc(Br)cc3Cl)c(C(=O)NOCCO)cc21 [Selumetinib] + CCN(CCO)CCCOc1ccc2c(Nc3cc(CC(=O)Nc4cccc(F)c4)[nH]n3)ncnc2c1 [AZD2811] (first compound max 10 µM, 7x7, partner max 1 µM) | 0.232

Record COc1nnc2ccc(N3CCC(c4ccc(OCCN5CCN(C)C(=O)[C@H]5C)cc4)CC3)nn12 [AZD5153] + C[C@@H]1COCCN1C2=NC(=NC(=C2)C3(CC3)[S@](=N)(=O)C)C4=C5C=CNC5=NC=C4 [AZD6738] (first compound max 1 µM, 7x7, partner max 10 µM) , field combination Emax: 0.664

// combination Emax value for CCN(CCO)CCCOc1ccc2c(Nc3cc(CC(=O)Nc4cccc(F)c4)[nH]n3)ncnc2c1 [AZD2811] + O=C(c1cc(Cc2n[nH]c(=O)c3ccccc23)ccc1F)N1CCN(C(=O)C2CC2)CC1 [Olaparib] (first compound max 1 µM, 7x7, partner max 10 µM) : 0.158

// CN(CCO)CC[C@H](CSc1ccccc1)Nc1ccc(S(=O)(=O)NC(=O)c2ccc(N3CCC([C@@H](O)c4ccccc4-c4ccc(Cl)cc4)CC3)cc2)cc1S(=O)(=O)C(F)(F)F [AZD4320] + C[C@@H](Nc1cc(F)cc(F)c1)c1cc(C(=O)N(C)C)cc2c(=O)cc(N3CCOCC3)oc12 [AZD8186] (first compound max 1 µM, 7x7, partner max 3 µM) : combination Emax value = 0.565

Memo: CC1(C)CCC(CN2CCN(c3ccc(C(=O)NS(=O)(=O)c4ccc(NCC5CCOCC5)c([N+](=O)[O-])c4)c(Oc4cnc5[nH]ccc5c4)c3)CC2)=C(c2ccc(Cl)cc2)C1 [Venetoclax] + CN(C)CCCOc1ccc(-c2ccc3ncc4c(c3c2)n(C2CCOCC2)c(=O)n4C)cn1 [AZD0156] (first compound max 1 µM, 7x7, partner max 1 µM) , reported combination Emax: 0.406
